System: P388
Experiment: Average potency against P388 cells
Format: functional, Mus musculus
assay.readout: AP (µM)

test.smiles: Cc1ccc(/C=C2\CCCc3ccccc3C2=O)cc1
assay.readout: AP
result.number: 11.2
--
test.smiles: COc1cccc(/C=C2\CCc3ccccc3C2=O)c1
assay.readout: AP
result.number: 20.9
--
test.smiles: COc1ccc(/C=C2\Cc3ccccc3C2=O)cc1
assay.readout: AP
result.number: 42.9
--
test.smiles: O=C1/C(=C/c2ccc(F)cc2)CCc2ccccc21
assay.readout: AP
result.number: 20.9
--
test.smiles: O=C1CCCCC/C1=C\c1cccc(Cl)c1
assay.readout: AP
result.number: 34.5
--
test.smiles: O=C1/C(=C/c2ccccc2)CCc2ccccc21
assay.readout: AP
result.number: 20.9
--
test.smiles: O=C1/C(=C/c2ccc(Br)cc2)CCCc2ccccc21
assay.readout: AP
result.number: 11.2

* * *

Test system: L1210
Test: Average potency against L1210 cells
Format: functional, Mus musculus

test.smiles: COc1cccc(/C=C2\CCCCCC2=O)c1
unit.name: µM
AP: 227
--
test.smiles: COc1ccc(/C=C2\CCCc3ccccc3C2=O)cc1
unit.name: µM
AP: 85.2
--
test.smiles: O=C1/C(=C/c2cccc(Cl)c2)Cc2ccccc21
unit.name: µM
AP: 127
--
test.smiles: Cc1ccc(/C=C2\CCc3ccccc3C2=O)cc1
unit.name: µM
AP: 135
--
test.smiles: Cc1cccc(/C=C2\CCCc3ccccc3C2=O)c1
unit.name: µM
AP: 85.2
--
test.smiles: O=C1CCCCC/C1=C\c1cccc([N+](=O)[O-])c1
unit.name: µM
AP: 227
--
test.smiles: O=C1/C(=C/c2cccc(Br)c2)CCCc2ccccc21
unit.name: µM
AP: 85.2
--
test.smiles: O=C1/C(=C/c2cccc([N+](=O)[O-])c2)Cc2ccccc21
unit.name: µM
AP: 127
--
test.smiles: O=C1/C(=C/c2ccc(Cl)cc2)CCCc2ccccc21
unit.name: µM
AP: 85.2
--
test.smiles: CN(C)c1ccc(/C=C2\Cc3ccccc3C2=O)cc1
unit.name: µM
AP: 127
--
test.smiles: O=C1/C(=C/c2ccccc2)CCc2ccccc21
unit.name: µM
AP: 135
--
test.smiles: O=C1/C(=C/c2ccc(Br)cc2)CCCc2ccccc21
unit.name: µM
AP: 85.2
--
test.smiles: O=C1/C(=C/c2ccc(Cl)cc2)Cc2ccccc21
unit.name: µM
AP: 127
--
test.smiles: O=C1CCCCC/C1=C\c1ccc(Cl)cc1
unit.name: µM
AP: 227
--
test.smiles: CN(C)c1ccc(/C=C2\CCc3ccccc3C2=O)cc1
unit.name: µM
AP: 135
--
test.smiles: Cc1cccc(/C=C2\CCCCCC2=O)c1
unit.name: µM
AP: 227
--
test.smiles: O=C1/C(=C/c2cccc([N+](=O)[O-])c2)CCCc2ccccc21
unit.name: µM
AP: 85.2
--
test.smiles: Cc1cccc(/C=C2\Cc3ccccc3C2=O)c1
unit.name: µM
AP: 127
--
test.smiles: O=C1/C(=C/c2cccc([N+](=O)[O-])c2)CCc2ccccc21
unit.name: µM
AP: 135
--
test.smiles: O=C1CCCCC/C1=C\c1ccc(F)cc1
unit.name: µM
AP: 227
--
test.smiles: COc1cccc(/C=C2\Cc3ccccc3C2=O)c1
unit.name: µM
AP: 127
--
test.smiles: CN(C)c1ccc(/C=C2\CCCc3ccccc3C2=O)cc1
unit.name: µM
AP: 85.2
--
test.smiles: O=C1/C(=C/c2ccc(F)cc2)Cc2ccccc21
unit.name: µM
AP: 127
--
test.smiles: O=C1CCCCC/C1=C\c1ccc(Br)cc1
unit.name: µM
AP: 227
--
test.smiles: O=C1/C(=C/c2ccccc2)Cc2ccccc21
unit.name: µM
AP: 127
--
test.smiles: COc1ccc(/C=C2\Cc3ccccc3C2=O)cc1
unit.name: µM
AP: 127
--
test.smiles: O=C1/C(=C/c2ccc([N+](=O)[O-])cc2)CCc2ccccc21
unit.name: µM
AP: 135
--
test.smiles: O=C1/C(=C/c2ccc([N+](=O)[O-])cc2)CCCc2ccccc21
unit.name: µM
AP: 85.2
--
test.smiles: O=C1/C(=C/c2ccc(F)cc2)CCc2ccccc21
unit.name: µM
AP: 135
--
test.smiles: O=C1/C(=C/c2cccc(F)c2)CCc2ccccc21
unit.name: µM
AP: 135
--
test.smiles: O=C1CCCCC/C1=C\c1cccc(F)c1
unit.name: µM
AP: 227
--
test.smiles: O=C1/C(=C/c2ccccc2)CCCc2ccccc21
unit.name: µM
AP: 85.2
--
test.smiles: COc1cccc(/C=C2\CCCc3ccccc3C2=O)c1
unit.name: µM
AP: 85.2
--
test.smiles: COc1cccc(/C=C2\CCc3ccccc3C2=O)c1
unit.name: µM
AP: 135
--
test.smiles: O=C1/C(=C/c2cccc(Cl)c2)CCCc2ccccc21
unit.name: µM
AP: 85.2
--
test.smiles: Cc1cccc(/C=C2\CCc3ccccc3C2=O)c1
unit.name: µM
AP: 135
--
test.smiles: CN(C)c1ccc(/C=C2\CCCCCC2=O)cc1
unit.name: µM
AP: 227
--
test.smiles: COc1ccc(/C=C2\CCCCCC2=O)cc1
unit.name: µM
AP: 227
--
test.smiles: COc1ccc(/C=C2\CCc3ccccc3C2=O)cc1
unit.name: µM
AP: 135

* * *

Tested on: L1210
Assay: Inhibitory activity was tested against L1210 cells
Type: functional, cell-based
Settings: Mus musculus

test.smiles: Cc1cccc(/C=C2\CCCc3ccccc3C2=O)c1
IC50: 54.4 µM

test.smiles: O=C1/C(=C/c2ccc([N+](=O)[O-])cc2)CCCc2ccccc21
IC50: > 500 µM

test.smiles: Cc1ccc(/C=C2\CCCCCC2=O)cc1
IC50: > 500 µM

* * *

System: L1210
Experiment: Inhibitory activity was tested against L1210 cells
Type: functional, cell-based
Conditions: Mus musculus
Below is a list of entries, each paired with its recorded log10 IC50 value.
assay.readout: log10 IC50 (log10 of the value in µM)

test.smiles: O=C1/C(=C/c2ccc(Cl)cc2)CCCc2ccccc21
result.number: 1.71

test.smiles: O=C1/C(=C/c2cccc(Cl)c2)CCCc2ccccc21
result.number: 1.72

test.smiles: O=C1CCCCC/C1=C\c1ccc([N+](=O)[O-])cc1
result.number: 2.02

test.smiles: O=C1/C(=C/c2ccc(Br)cc2)CCCc2ccccc21
result.number: 1.71

test.smiles: O=C1/C(=C/c2cccc([N+](=O)[O-])c2)CCc2ccccc21
result.number: 2.40

test.smiles: O=C1CCCCC/C1=C\c1ccccc1
result.number: 2.42

test.smiles: Cc1ccc(/C=C2\CCCc3ccccc3C2=O)cc1
result.number: 1.40

test.smiles: CN(C)c1ccc(/C=C2\CCCCCC2=O)cc1
result.number: 1.90

test.smiles: O=C1/C(=C/c2cccc(Cl)c2)CCc2ccccc21
result.number: 2.07

test.smiles: O=C1CCCCC/C1=C\c1ccc(Cl)cc1
result.number: 1.92

test.smiles: COc1ccc(/C=C2\CCCCCC2=O)cc1
result.number: 2.49

test.smiles: O=C1CCCCC/C1=C\c1ccc(F)cc1
result.number: 2.46

test.smiles: O=C1/C(=C/c2cccc(Cl)c2)Cc2ccccc21
result.number: 1.61

test.smiles: O=C1/C(=C/c2ccc(F)cc2)CCc2ccccc21
result.number: 1.69

test.smiles: COc1cccc(/C=C2\CCCc3ccccc3C2=O)c1
result.number: 1.75

test.smiles: O=C1/C(=C/c2ccccc2)Cc2ccccc21
result.number: 2.05

test.smiles: COc1ccc(/C=C2\Cc3ccccc3C2=O)cc1
result.number: 1.66

* * *

Reported AP by item:
Tested on: P388
Experiment: Average potency against P388 cells
Type: functional, Mus musculus
assay.readout: AP (µM)

test.smiles: O=C1/C(=C/c2ccc([N+](=O)[O-])cc2)Cc2ccccc21
assay.readout: AP
result.number: 42.9
--
test.smiles: Cc1cccc(/C=C2\CCCc3ccccc3C2=O)c1
assay.readout: AP
result.number: 11.2
--
test.smiles: COc1ccc(/C=C2\CCCc3ccccc3C2=O)cc1
assay.readout: AP
result.number: 11.2
--
test.smiles: O=C1/C(=C/c2ccc(F)cc2)CCCc2ccccc21
assay.readout: AP
result.number: 11.2

* * *

Test system: MOLT-4
Experiment: Average potency against Molt4/C8cells
Assay type: functional, Homo sapiens
# AP values compiled below

test.smiles: CN(C)c1ccc(/C=C2\CCCc3ccccc3C2=O)cc1
AP [µM]: 66
//
test.smiles: Cc1ccc(/C=C2\CCCc3ccccc3C2=O)cc1
AP [µM]: 66
//
test.smiles: O=C1/C(=C/c2ccc(Br)cc2)CCc2ccccc21
AP [µM]: 158
//
test.smiles: O=C1/C(=C/c2ccc(F)cc2)Cc2ccccc21
AP [µM]: 267
//
test.smiles: O=C1CCCCC/C1=C\c1ccc(F)cc1
AP [µM]: 186
//
test.smiles: COc1cccc(/C=C2\Cc3ccccc3C2=O)c1
AP [µM]: 267
//
test.smiles: O=C1/C(=C/c2cccc(Cl)c2)Cc2ccccc21
AP [µM]: 267
//
test.smiles: COc1cccc(/C=C2\CCCc3ccccc3C2=O)c1
AP [µM]: 66
//
test.smiles: O=C1/C(=C/c2ccc(Cl)cc2)Cc2ccccc21
AP [µM]: 267
//
test.smiles: O=C1CCCCC/C1=C\c1ccc([N+](=O)[O-])cc1
AP [µM]: 186
//
test.smiles: O=C1/C(=C/c2ccc([N+](=O)[O-])cc2)CCc2ccccc21
AP [µM]: 158
//
test.smiles: COc1ccc(/C=C2\CCc3ccccc3C2=O)cc1
AP [µM]: 158
//
test.smiles: O=C1/C(=C/c2ccc(Br)cc2)CCCc2ccccc21
AP [µM]: 66
//
test.smiles: O=C1CCCCC/C1=C\c1ccccc1
AP [µM]: 186
//
test.smiles: O=C1/C(=C/c2cccc(F)c2)CCCc2ccccc21
AP [µM]: 66

Source of measurements: ChEMBL document CHEMBL1132632
